target: Tubulin; experiment: Inhibition of tubulin (unknown origin) polymerization measured every minute by spectrophotometric method
property name: pIC50
Friendly reminder that pIC50 comes from taking -log10 of the concentration in mol/L.

Task: Specify reported pIC50 for the compound shown: "COc1ccc(CN(C(=O)Cn2cc(COc3ccc4c(C)cc(=O)oc4c3)nn2)c2cc(OC)c(OC)c(OC)c2)cc1"
Output: 5.66
